assay-remarks: Growth inhibition of human EKVX cells measured after 48 hrs by sulforhodamine B assay
Format: functional
test-readout: log10 of GI50 (log10 of the value in nM)

                            chemical_string  result_number
0  CCCc1n(Cc2ccc3ccccc3n2)cc[n+]1Cc1ccc2ccccc2n1.[Cl-]           4.10
1  CCc1n(Cc2ccc3ccccc3n2)cc[n+]1Cc1ccc2ccccc2c1.[Br-]           2.65
2  CCc1n(Cc2ccc3ccccc3n2)cc[n+]1Cc1ccc2ccccc2n1.[Cl-]           2.54
3  c1ccc2cc(Cn3cc[n+](Cc4ccc5ccccc5c4)c3)ccc2c1           3.40
4  CCCCc1n(Cc2ccc3ccccc3n2)cc[n+]1Cc1ccc2ccccc2n1.[Cl-]           3.60
5  CCCc1n(Cc2ccc3ccccc3n2)cc[n+]1Cc1ccc2ccccc2c1.[Cl-]           3.33
6  Cc1n(Cc2ccc3ccccc3n2)cc[n+]1Cc1ccc2ccccc2c1.[Br-]           3.59
7  [Br-].c1ccc(-c2n(Cc3ccc4ccccc4c3)cc[n+]2Cc2ccc3ccccc3c2)cc1           3.20

* * *

assay-remarks: Growth inhibition of human NCI-H23 cells measured after 48 hrs by sulforhodamine B assay
Format: functional
cond: NCI-H23, 48 h
test-readout: TGI (µM)

>>> print(df.to_string())
                            chemical_string  result_units  result_number
0  CCCCc1n(Cc2ccc3ccccc3n2)cc[n+]1Cc1ccc2ccccc2n1.[Cl-]            µM           7.27
1  CCCc1n(Cc2ccc3ccccc3n2)cc[n+]1Cc1ccc2ccccc2n1.[Cl-]            µM             15
2  c1ccc2cc(Cn3cc[n+](Cc4ccc5ccccc5c4)c3)ccc2c1            µM           10.1
3  CCc1n(Cc2ccc3ccccc3n2)cc[n+]1Cc1ccc2ccccc2n1.[Cl-]            µM           8.66
4  [Br-].c1ccc(-c2n(Cc3ccc4ccccc4c3)cc[n+]2Cc2ccc3ccccc3c2)cc1            µM           2.35
5  Cc1n(Cc2ccc3ccccc3n2)cc[n+]1Cc1ccc2ccccc2c1.[Br-]            µM           13.4
6  CCc1n(Cc2ccc3ccccc3n2)cc[n+]1Cc1ccc2ccccc2c1.[Br-]            µM           3.23
7  CCCc1n(Cc2ccc3ccccc3n2)cc[n+]1Cc1ccc2ccccc2c1.[Cl-]            µM           10.6

* * *

assay-remarks: Antiproliferative activity against human NCI-H460 cells assessed as reduction in cell viability measured after 72 hrs by MTT assay
Format: functional, cell-based
cond: NCI-H460, 72 h
pIC50: −log10 of the molar value.
test-readout: pIC50

                             chemical_string  result_number
 0  CCCCc1n(Cc2ccc3ccccc3n2)cc[n+]1Cc1ccc2ccccc2c1.[Cl-]           5.52
 1  OCc1n(Cc2ccc3ccccc3c2)cc[n+]1Cc1ccc2ccccc2c1.[Br-]           4.85
 2  c1ccc2cc(Cn3cc[n+](Cc4ccc5ccccc5c4)c3)ccc2c1           5.40
 3  CCCCc1n(Cc2ccc3ccccc3n2)cc[n+]1Cc1ccc2ccccc2n1.[Cl-]           5.30
 4  [Br-].c1ccc(-c2n(Cc3ccc4ccccc4c3)cc[n+]2Cc2ccc3ccccc3c2)cc1           5.52
 5  CCCc1n(Cc2ccc3ccccc3n2)cc[n+]1Cc1ccc2ccccc2n1.[Cl-]           5.30
 6  [Cl-].c1ccc(-c2n(Cc3ccc4ccccc4n3)cc[n+]2Cc2ccc3ccccc3c2)cc1           5.52
 7  CCc1n(Cc2ccc3ccccc3n2)cc[n+]1Cc1ccc2ccccc2n1.[Cl-]           5.22
 8  Cc1n(Cc2ccc3ccccc3n2)cc[n+]1Cc1ccc2ccccc2c1.[Br-]           5.70
 9  [Cl-].c1ccc(-c2n(Cc3ccc4ccccc4n3)cc[n+]2Cc2ccc3ccccc3n2)cc1           5.10
10  CCc1n(Cc2ccc3ccccc3n2)cc[n+]1Cc1ccc2ccccc2c1.[Br-]           5.70
11  CCCc1n(Cc2ccc3ccccc3n2)cc[n+]1Cc1ccc2ccccc2c1.[Cl-]           5.52
12  Cc1n(Cc2ccc3ccccc3n2)cc[n+]1Cc1ccc2ccccc2n1.[Cl-]           5.10

* * *

assay-remarks: Antiproliferative activity against human HOP92 cells assessed as cell growth at 10 uM measured after 48 hrs by sulforhodamine B assay relative to control
Assay type: functional
cond: HOP-92, 48 h, read-out: Activity
Catalogue of growth at 10 µM readings, one per entry.
test-readout: growth at 10 µM (%)

>>> df
                            chemical_string  result_number
0  c1ccc2cc(Cn3cc[n+](Cc4ccc5ccccc5c4)c3)ccc2c1          -13.3
1  CCc1n(Cc2ccc3ccccc3n2)cc[n+]1Cc1ccc2ccccc2c1.[Br-]          -20.1
2  CCc1n(Cc2ccc3ccccc3n2)cc[n+]1Cc1ccc2ccccc2n1.[Cl-]          -11.8
3  CCCc1n(Cc2ccc3ccccc3n2)cc[n+]1Cc1ccc2ccccc2c1.[Cl-]          -18.6
4  [Br-].c1ccc(-c2n(Cc3ccc4ccccc4c3)cc[n+]2Cc2ccc3ccccc3c2)cc1          -69.7

* * *

assay-remarks: Growth inhibition of human NCI-H322M cells measured after 48 hrs by sulforhodamine B assay
Type: functional
test-readout: GI50 (µM)

In [3]: df
Out[3]:
                            chemical_string  result_number
0  CCCCc1n(Cc2ccc3ccccc3n2)cc[n+]1Cc1ccc2ccccc2n1.[Cl-]           3.57
1  CCc1n(Cc2ccc3ccccc3n2)cc[n+]1Cc1ccc2ccccc2n1.[Cl-]           6.33
2  [Br-].c1ccc(-c2n(Cc3ccc4ccccc4c3)cc[n+]2Cc2ccc3ccccc3c2)cc1           1.42

* * *

assay-remarks: Antiproliferative activity against human HOP92 cells assessed as cell growth at 10 uM measured after 48 hrs by sulforhodamine B assay relative to control
Assay type: functional
cond: HOP-92, 48 h, read-out: Activity
Catalogue of growth at 10 µM readings, one per entry.
test-readout: growth at 10 µM (%)

>>> print(df.to_string())
                            chemical_string  result_units  result_number
0  Cc1n(Cc2ccc3ccccc3n2)cc[n+]1Cc1ccc2ccccc2n1.[Cl-]             %           74.5
1  CCCc1n(Cc2ccc3ccccc3n2)cc[n+]1Cc1ccc2ccccc2n1.[Cl-]             %             16
2  Cc1n(Cc2ccc3ccccc3n2)cc[n+]1Cc1ccc2ccccc2c1.[Br-]             %           -6.1
3  CCCCc1n(Cc2ccc3ccccc3n2)cc[n+]1Cc1ccc2ccccc2n1.[Cl-]             %           4.31
4  OCc1n(Cc2ccc3ccccc3c2)cc[n+]1Cc1ccc2ccccc2c1.[Br-]             %          -2.81
